Attribution: patent US10660877B2

Recorded pIC50 values for a group of compounds are listed next.
systemUnderTest: human TLR9 (Homo sapiens (Human))
Sequence (Q9NR96 26-1032): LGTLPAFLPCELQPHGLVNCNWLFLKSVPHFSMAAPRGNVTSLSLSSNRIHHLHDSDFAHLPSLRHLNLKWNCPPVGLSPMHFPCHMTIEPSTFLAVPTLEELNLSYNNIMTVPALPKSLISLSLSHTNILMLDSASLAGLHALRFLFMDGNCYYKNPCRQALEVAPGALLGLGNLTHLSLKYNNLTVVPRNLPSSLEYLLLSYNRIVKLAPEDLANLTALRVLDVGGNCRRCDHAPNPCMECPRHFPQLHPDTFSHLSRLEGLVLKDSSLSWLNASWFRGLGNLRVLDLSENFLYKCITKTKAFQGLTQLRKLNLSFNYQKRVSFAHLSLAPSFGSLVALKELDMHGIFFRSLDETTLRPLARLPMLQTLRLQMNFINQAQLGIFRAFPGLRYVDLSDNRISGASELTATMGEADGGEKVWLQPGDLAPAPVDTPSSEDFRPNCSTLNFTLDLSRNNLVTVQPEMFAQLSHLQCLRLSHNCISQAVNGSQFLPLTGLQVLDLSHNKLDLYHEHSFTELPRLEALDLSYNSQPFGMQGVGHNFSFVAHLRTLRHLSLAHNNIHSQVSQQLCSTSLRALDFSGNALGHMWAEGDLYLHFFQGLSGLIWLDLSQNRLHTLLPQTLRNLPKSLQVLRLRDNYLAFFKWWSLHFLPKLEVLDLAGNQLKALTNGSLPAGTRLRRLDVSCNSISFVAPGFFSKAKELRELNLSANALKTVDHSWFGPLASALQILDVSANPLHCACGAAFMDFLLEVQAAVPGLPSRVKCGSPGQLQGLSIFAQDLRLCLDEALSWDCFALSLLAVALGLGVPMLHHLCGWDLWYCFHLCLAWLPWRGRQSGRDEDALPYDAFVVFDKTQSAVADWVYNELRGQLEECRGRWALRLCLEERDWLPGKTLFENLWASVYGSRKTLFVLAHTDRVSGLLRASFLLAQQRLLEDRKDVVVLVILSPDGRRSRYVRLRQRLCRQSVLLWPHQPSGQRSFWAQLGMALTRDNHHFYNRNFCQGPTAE
testMethodNotes: TLR9 inhibition reporter assay (HEK-Blue cells, SEAP reporter, ODN2006 stimulation);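 further: compounds tested over 0.05 nM to 50 µM, 22 h incubation, inhibition taken as SEAP signal drop from agonist plus DMSO wells toward a known inhibitor control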
testSettings: read-out: TLR9 IC50, HEK-Blue cells overexpressing human TLR9, ODN2006 5 nM
pIC50: −log10 of the molar value.
measuredAttribute: pIC50

INSERT INTO measurements (compound, measuredattribute, resultoperator, valuereported) VALUES
  ('Cc1cc(-c2[nH]c3ccc(C4CCN(C(=O)CN(C)[C@@H]5CCOC5)CC4)cc3c2C(C)C)cc(C)n1', 'pIC50', '=', 5.74),
  ('Cc1cc(-c2[nH]c3ccc(C4CCN(CC(=O)N5C[C@H](C(F)(F)F)C[C@@H]5CO)CC4)cc3c2C(C)C)cc(C)n1', 'pIC50', '=', 5.80),
  ('Cc1cc(-c2[nH]c3ccc(C4CCN(S(=O)(=O)C5CC5)CC4)cc3c2C(C)C)ccn1', 'pIC50', '<', 4.30),
  ('CCc1c(-c2ccnc(Cl)c2)[nH]c2ccc(C3CCNCC3)cc12', 'pIC50', '=', 5.68),
  ('Cc1cc(-c2[nH]c3ccc(C4CCN(CC(=O)N[C@H]5CC[C@H](O)CC5)CC4)cc3c2C(C)C)cc(C)n1', 'pIC50', '=', 6.61),
  ('Cc1cc(-c2[nH]c3ccc(C4CCN(CC(C)C)CC4)cc3c2C(C)C)cc(C)n1', 'pIC50', '=', 6.21),
  ('CCc1c(-c2ccnc(C)c2)[nH]c2ccc(C3CCN(C(=O)C4CCNC4)CC3)cc12 (centres unmarked) [Example 633]', 'pIC50', '=', 6.51),
  ('Cc1cc(-c2[nH]c3ccc(C4CCN(CC(=O)NC(C)(C)C)CC4)cc3c2C(C)C)cc(C)n1', 'pIC50', '=', 5.99);
